# System: various human tumor cells
# ASSAY DETAILS: In vitro activity of compound Nr. 54 on various human tumor cells
# Format: cell-based
# COND: cell line HepG2, hepatocellular carcinoma
# Procedure: HepG2 cells plated at a density of 20,000 cells/ml in 12-well plastic dishes. […] After six days of substance incubation, the test was ended and the protein amount in the individual wells was determined with the sulforhodamin-B-method (according to P. Skehan et al: New Colorimetric Cytotoxicity Assay for Anticancer-Drug Screening. J. Natl. Cancer Inst. 82:1107-1112, 1990). […]
pIC50: −log10 of the molar value.
VALUE TYPE: pIC50

compound_structure_string=O=C(CCc1cccnc1)NCCCCC1CCN(C(c2ccccc2)c2ccccc2)CC1 target_or_test_system="various human tumor cells" experimental_result=7.70

All values here come from patent US20030162972A1.
